Could you please report measured growth inhibition for the items listed next?
assay: NCI Yeast Anticancer Drug Screen. Data for the mec2-1 strain (AID 157); settings: S. cerevisiae mec2-1 strain, at 50.0 µM, active compounds read high
About 79,000 compounds went through this panel and 15% of them were active in at least one assay; those are over-represented in the sample as a whole.
Field: numeric (%). Do not append units.

Noted for `CCN(CC)CCOC(=O)c1ccc(N=Nc2ccc(O)cc2)cc1` : its growth inhibition reads -0.8

Noted for `N#C/C(=C(\O)C(=O)O)c1ccc(-c2cccc3ccccc23)cc1` : its growth inhibition reads 0.6

Noted for `Nc1c(OCc2ccccc2)cccc1C(=O)O` : its growth inhibition reads -9.5

Noted for COc1ccc(N2C(=O)C3c4[nH]c5ccc(C)cc5c4C4CCC(C)CC4C3C2=O)cc1 (configuration not stated) : its growth inhibition reads -0.6

Noted for `O=C(C[n+]1ccccc1Br)c1ccc(I)cc1` : its growth inhibition reads 2

Noted for CC1(C)CCCC(OC(=O)c2ccc([N+](=O)[O-])cc2)C1 (configuration not stated) : its growth inhibition reads -17.5

Noted for `S=C(S)NC1CCN(Cc2ccccc2)CC1` : its growth inhibition reads 30.6

Noted for `COC(=O)c1ccccc1NC(=O)N(c1ccccc1)c1ccccc1` : its growth inhibition reads -3.45

Noted for C=CCCCCCCCC(O)C1C[C@H](O)C(CCCCC)O1 (some centres not stated) : its growth inhibition reads -16.9

Noted for `O=C1NC(N2CCOCC2)=N/C1=C\c1ccccc1` : its growth inhibition reads 11.2

Noted for `CC(C)(C)CC(C)(C)[N+](=O)[O-]` : its growth inhibition reads -14.6

Noted for `c1ccc(P(CCCP(c2ccccc2)c2ccccc2)c2ccccc2)cc1` : its growth inhibition reads 21.4

Origin of the recorded values: PubChem BioAssay (NCI)
